TEST SUMMARY: Soluble aggregates of transiently expressed antibodies
Format: physicochemical
RUN PARAMETERS: Protein A purified antibody
VALUE KIND: % soluble aggregate (%)
Report the figure in % without appending any unit label.

Value of % soluble aggregate reported for the molecule J1-65D variant 10: humanised/de-immunised J1-65D: J1-65D_VL_3 + J1-65D_VH_2 (antibody, V domains shown) VH: QVQLVQSGAELKKPGSSVKVSCKASGYTFTDYEMHWVRQAPGQGLEWMGAIQPGGGGTAYAQKFKGRVTLTADKSTSTAYMELSSLRSEDTAVYYCTRRGYDDYPFAYWGQGTLVTVSSASTKGP VL: DIQMTQSPSSLSASVGDRVTITCRASGNIHNYLAWYQQKPGKAPKLLIYNAKTLADAVPSRFSGSGSGTDYTLTISSLQPEDFATYYCQHFWSAPWTFGQGTKLEIKRT is 0.59
